The reported measurements were obtained from PubChem BioAssay (Tox21).

Test: A CellTox Green Cytotoxicity Assay to monitor cytotoxicity in HEK293 cells - 16 hour (AID 1224888); further: nearly all actives have a fitted effect of over 35% in size
Details: CellTox Green fluorescence; series mostly up to 76.8 µM
Results filed as inconclusive are left out. Activity calls are given as the source filed them. The call rests on the fitted dose curve; in most records, active means well fitted activation curve with a large enough effect in the repeat runs; inconclusive means weak or mixed curves; inactive means flat fitted curve, though single readings scatter.
Pick one: true = active, false = inactive

Use the examples below as a reference point.
CCCCN(CCCC)C(=S)S ... false
CCCCc1ccccc1 ... false
COC(=O)/C=C(\C)OP(=O)(OC)OC ... false

Query block: Kindly provide the recorded test outcome for the following compound: c1ccc2c(c1)cc1ccc3cccc4ccc2c1c34
Result block: false

Query block: # repeat for CC1(C)[C@H](/C=C2\CCSC2=O)[C@@H]1C(=O)OCc1coc(Cc2ccccc2)c1
Result block: false

Query block: # repeat for Oc1ccc([C@H]2CNCc3c2ccc(O)c3O)cc1O
Result block: true

Query block: # repeat for CN
Result block: false

Query block: # repeat for O=C1C(Cl)=C(Cl)C(=O)C(Cl)=C1Cl
Result block: false

----------
Target: Thyrotropin receptor (Homo sapiens)
Assay: qHTS assay to identify small molecule agonists of the thyroid stimulating hormone receptor (TSHR) signaling pathway (AID 1224843); further: nearly all actives have a fitted effect of over 45% in size
Conditions: TSHR-HEK293 cells, cAMP HTRF, agonist mode, 30 min; series mostly up to 92.4 µM
Results filed as inconclusive are left out. The source made the active and inactive calls. Calls come from the whole dose curve.
Pick one: yes for active, no for inactive

CC(C)=CCN1CC[C@@]2(C)c3cc(O)ccc3C[C@@H]1[C@@H]2C ... no
O=[N+]([O-])c1ccc(Cl)c(Cl)c1Cl ... no
Nc1nc(N)nc(Cl)n1 ... no

Query block: Kindly provide the recorded test outcome for the following molecule: COC(=O)c1ccccc1S(=O)(=O)NC(=O)Nc1nc(C)nc(OC)n1
Result block: no

Query block: # repeat for CN1C2CCC(C)(C)C1CC(OC(=O)C(O)(c1cccs1)c1cccs1)C2 (stereo not drawn)
Result block: no

Query block: # repeat for O=C(NC(=O)c1ccccc1Cl)Nc1ccc(OC(F)(F)F)cc1
Result block: no

Query block: # repeat for CCN(CC)Cc1nccn1-c1ccc([N+](=O)[O-])cc1C(=O)c1ccccc1Cl
Result block: no

Query block: # repeat for CN1CCc2cc(Cl)c(O)cc2[C@H]2c3ccccc3CC[C@@H]21
Result block: no

Query block: # repeat for CCCCCCC[CH2][Sn]([Cl])([Cl])[CH2]CCCCCCC
Result block: no

Query block: # repeat for CN
Result block: no

Query block: # repeat for ClC(Cl)C(Cl)(Cl)Cl
Result block: no

Query block: # repeat for CNC(C)(C)Cc1ccccc1
Result block: no

Query block: # repeat for CC(C)N(C(=O)SC/C(Cl)=C/Cl)C(C)C
Result block: yes

----------
Assay: qHTS assay for small molecule disruptors of the mitochondrial membrane potential (AID 720635); further: potency means the concentration at half of the fitted maximal effect
Details: HepG2 mitochondrial membrane potential, Mito-MPS dye ratio; series mostly up to 83.2 µM
Records with an inconclusive call do not appear. Calls of active or inactive are those of the source. The call rests on the fitted dose curve; in most records, active means well fitted inhibition curve with a large enough effect in the signal ratio in the repeat runs; inconclusive means weak or mixed curves, or effect the other way; inactive means flat fitted curve, though single readings scatter; the % refers to the signal ratio.
measured-parameter: Potency

Some solved cases for reference:
CCCCn1cc[n+](C)c1 (tested in a mixture with another compound) ... inactive
CNC(=O)CSP(=O)(OC)OC ... inactive
CCN(CC)Cc1nccn1-c1ccc([N+](=O)[O-])cc1C(=O)c1ccccc1Cl ... inactive
CCC[CH2][Sn]([CH2]CCC)([CH2]CCC)[CH2]CCC ... 4.86 µM (active)
CSC(C)(C)/C=N/O ... inactive
CCN(CC)CCc1c[nH]c2ccccc12 ... inactive

Continue with the compound presented below.
Query block: // lookup Potency for CSC1=N[C@@](C)(c2ccccc2)C(=O)N1Nc1ccccc1
Result block: 61.1 µM (active)
